Test: Cytotoxicity against TNFalpha-stimulated HUVEC assessed as cell viability at 5 uM pretreated for 16 hrs before TNFalpha challenge measured after 6 hrs by MTT assay (reference value: 103.8 +/- 6.1%)
Type: cell-based
Settings: human, TNFalpha-stimulated HUVEC cells; read-out: Activity
measuredParameter: viability at 6 h, 5 µM (%)
Number in %, nothing else.

Entry C=C1CC[C@@H]2[C@](C)(CO)[C@H](O)CC[C@@]2(C)[C@@H]1C/C=C1/C(=O)OC[C@H]1O [ANDROGRAPHOLIDE] — recorded viability at 6 h, 5 µM = 96.4

* * *

Test: Cytotoxicity against TNFalpha-stimulated HUVEC assessed as cell viability at 20 uM pretreated for 16 hrs before TNFalpha challenge measured after 6 hrs by MTT assay (reference value: 103.8 +/- 6.1%)
Assay type: cell-based
Details: human, TNFalpha-stimulated HUVEC cells; read-out: Activity
measuredParameter: viability at 6 h, 20 µM (%)
# number only, unit % dropped from output

The compound C=C1CC[C@@H]2[C@](C)(CO)[C@H](O)CC[C@@]2(C)[C@@H]1C/C=C1/C(=O)OC[C@H]1O [ANDROGRAPHOLIDE] showed viability at 6 h, 20 µM equal to 87.5
